The entries below come with measured MIC values attached.
Tested on: MDR K. pneumoniae clinical isolates
PROCEDURE_TEXT: Resistance phenotype (MICs of antibiotics) of MDR clinical isolates
Format: cell-based, Klebsiella pneumoniae
CONDITION_CONTEXT: Klebsiella pneumoniae, 116381; read-out: MIC
MEASURED_ENDPOINT: MIC

INSERT INTO assay_data (molecule, measured_endpoint, reported_value) VALUES
  ('C[C@@H](O)[C@H]1C(=O)N2C(C(=O)O)=C(S[C@@H]3CN[C@H](C(=O)N(C)C)C3)[C@H](C)[C@H]12', 'MIC', '≤ 0.03 µg/mL'),
  ('COc1c(N2C[C@@H]3CCCN[C@@H]3C2)c(F)cc2c(=O)c(C(=O)O)cn(C3CC3)c12', 'MIC', '> 16 µg/mL'),
  ('NCC[C@H](O)C(=O)N[C@@H]1C[C@H](N)[C@@H](O[C@H]2O[C@H](CN)[C@@H](O)[C@H](O)[C@H]2O)[C@H](O)[C@H]1O[C@H]1O[C@H](CO)[C@@H](O)[C@H](N)[C@H]1O', 'MIC', '≤ 1 µg/mL'),
  ('Cc1nnc(SCC2=C(C(=O)O)N3C(=O)[C@@H](NC(=O)Cn4cnnn4)[C@H]3SC2)s1', 'MIC', '> 128 µg/mL'),
  ('O=C(N[C@H](CO)[C@H](O)c1ccc([N+](=O)[O-])cc1)C(Cl)Cl', 'MIC', '> 512 µg/mL'),
  ('CNC(C)C1CCC(N)C(OC2C(N)CC(N)C(OC3OCC(C)(O)C(NC)C3O)C2O)O1 (stereo not drawn)', 'MIC', '≤ 0.5 µg/mL');
